The measurements presented in this section are drawn from PubChem BioAssay (NCI).

test system: MDA-MB-231 breast; assay: NCI tumour cell line growth inhibition, 48 h
measured_metric: GI50

>>> observed_measurement("C=C(C)[C@@H]1CC[C@]2(CN)CC[C@]3(C)[C@H](CC[C@@H]4[C@@]5(C)CCC(N)[C@@](C)(CO)[C@@H]5CC[C@]43C)[C@@H]12 (stereo not given in full)")
"1840 nM"
>>> observed_measurement("COc1ccc2c(c1)c(-c1ccc(-c3cn(C)c4ccc(OC)cc34)o1)cn2C")
"2370 nM"
>>> observed_measurement("COc1cc2c(cc1OC)-c1ncc3cc(OC)c(OC)c(OC)c3c1C2")
"2540 nM"
>>> observed_measurement("C[C@@H]1OC(=O)NN=C1c1ccc(-c2ccc(F)cc2)c(C(F)(F)F)c1")
"10100 nM"
>>> observed_measurement("C[C@@]1(O)CCC[C@H]1n1c(=O)c(C(F)F)cc2cnc(NC3CCN(S(C)(=O)=O)CC3)nc21")
"1140 nM"
>>> observed_measurement("C#CCN(Cc1nc2cc(C(F)(F)F)ccc2nc1-c1ccccc1)c1ccc(F)cc1")
"21600 nM"
>>> observed_measurement("COCC(=O)NC/C=C/c1ccc2ncnc(Nc3ccc(Oc4ccc(C)nc4)c(C)c3)c2c1")
"12700 nM"
>>> observed_measurement("N#Cc1ccc(NC(=O)Nc2nc3ccc(OC(F)(F)F)cc3s2)cc1")
"935 nM"
>>> observed_measurement("C=C1C(=O)O[C@H]2[C@H]1CC/C(Cn1cc(-c3ccsc3)nn1)=C\\CC[C@@]1(C)O[C@@H]21")
"1750 nM"
>>> observed_measurement("Cc1cc(C)c(O)c(CNCCCNCc2cc(C)cc(C)c2O)c1")
"1930 nM"
>>> observed_measurement("COc1ccc(-c2cc(-c3ccc(Cl)cc3)nc(SCCCCCCC(=O)NO)n2)cc1")
"1740 nM"
>>> observed_measurement("COc1cccc(NC(=O)c2ccc(NC3=C(Cl)C(=O)N(Cc4ccccc4)C3=O)cc2)c1")
"16700 nM"
>>> observed_measurement("Clc1ccc(COC(Cn2ccnc2)c2ccc(Cl)cc2Cl)c(Cl)c1 (stereo not given)")
"2150 nM"
>>> observed_measurement("CCCc1n(Cc2ccc3ccccc3n2)cc[n+]1Cc1ccc2ccccc2c1")
"1050 nM"
>>> observed_measurement("O=C(Nc1ccc(N2CCNCC2)cn1)c1[nH]ncc1Nc1ncnc2sccc12")
"1680 nM"
